Assay: Antiproliferative activity against human NCI-H1975 cells measured after 96 hrs by Celltiter-Glo assay
Assay type: functional, cell-based
Settings: NCI-H1975, 96 h
Readout Label: pIC50
Recall that pIC50 is obtained by taking minus log10 of the concentration measured in molar.

COc1ccc(-c2nsc3c2NC(=O)CC3c2cccc(OC)c2)cc1 (stereo unspecified) ... 5.70
COc1ccc(-c2nsc3c2NC(=O)CC3c2ccsc2)cc1 (stereo unspecified) ... 6.60

// field: pIC50; key: COc1ccc(-c2nsc3c2NC(=O)CC3c2ccc3c(c2)OCCO3)cc1 (stereo unspecified) ; value = 5.91

----------
Test: Antiproliferative activity against human A2780 cells measured after 3 days by Celltiter-Glo assay
Type: functional, cell-based
Conditions: A2780, 72 h
Readout Label: pIC50
Recall that pIC50 is obtained by taking minus log10 of the concentration measured in molar.

// field: pIC50; key: COc1ccc(-c2nsc3c2NC(=O)CC3c2ccsc2)cc1 (stereo unspecified) ; value = 6.64

----------
Test: Antiproliferative activity against human A2780cis cells measured after 3 days by Celltiter-Glo assay
Type: functional, cell-based
Conditions: A2780cisR, 72 h
Readout Label: IC50 (µM)
Return type: number; implicit unit µM.

// field: IC50; key: COc1ccc(-c2nsc3c2NC(=O)CC3c2ccsc2)cc1 (stereo unspecified) ; value = 0.187

----------
Tested on: Paracentrotus lividus
Test: Antimitotic activity in sea urchin embryo assessed as cleavage arrest exposed 8 to 15 mins after fertilization 45 to 55 mins before first mitotic cycle completion measured at 2.5 to 5.5 hrs post dose
Type: functional
Consider the cut-off 0.2 µM. If the recorded EC is strictly smaller, the label is yes (1); if not, the label is no (0).

O=C1CC(c2cccc(Cl)c2)c2snc(-c3cccc(F)c3)c2N1 (stereo not given) ... no (0)
COc1cc(C2CC(=O)Nc3c(-c4ccc(Cl)cc4)nsc32)c(OC)c2c1OCO2 (stereo not given) ... no (0)

Challenge: EC strictly < 0.2 µM for this molecule? O=C1CC(c2ccsc2)c2snc(-c3cccc(F)c3)c2N1 (stereo not given)
Response given: no (0)

Challenge: EC strictly < 0.2 µM for this molecule? COc1cc(C2CC(=O)Nc3c(-c4ccccc4)nsc32)c(OC)c2c1OCO2 (stereo not given)
Response given: no (0)

Challenge: EC strictly < 0.2 µM for this molecule? COc1ccc(-c2nsc3c2NC(=O)CC3c2cccc(Cl)c2)cc1 (stereo not given)
Response given: yes (1)

Challenge: EC strictly < 0.2 µM for this molecule? COc1ccc(-c2nsc3c2NC(=O)CC3c2cccc(F)c2)cc1 (stereo not given)
Response given: yes (1)

Challenge: EC strictly < 0.2 µM for this molecule? O=C1CC(c2cccc(F)c2)c2snc(-c3cccc(F)c3)c2N1 (stereo not given)
Response given: no (0)

Challenge: EC strictly < 0.2 µM for this molecule? COc1cc(C2CC(=O)Nc3c(-c4cccc(F)c4)nsc32)c(OC)c2c1OCO2 (stereo not given)
Response given: no (0)

----------
Experiment: Antiproliferative activity against human NCI-H1975 cells measured after 96 hrs by Celltiter-Glo assay
Type: functional, cell-based
Settings: NCI-H1975, 96 h
Readout Label: IC50

COc1ccc(-c2nsc3c2NC(=O)CC3c2cccc(F)c2)cc1 (stereo not drawn) ... > 2 µM
COc1ccc(-c2nsc3c2NC(=O)CC3c2cccc(Cl)c2)cc1 (stereo not drawn) ... > 2 µM

In the following, a different compound is considered.
// field: IC50; key: COc1ccc(-c2nsc3c2NC(=O)CC3c2ccc(F)cc2)cc1 (stereo not drawn) ; value = > 2 µM
